# TARGET_OR_SYSTEM: T1, cynomolgus (cyno) ANGPT2 (cynomolgus, UniProt A0A2K5VNX6 275-496)
# T1 construct: domain: FLD domain; also called cyno ANGPT2 FLD domain
# T1 sequence: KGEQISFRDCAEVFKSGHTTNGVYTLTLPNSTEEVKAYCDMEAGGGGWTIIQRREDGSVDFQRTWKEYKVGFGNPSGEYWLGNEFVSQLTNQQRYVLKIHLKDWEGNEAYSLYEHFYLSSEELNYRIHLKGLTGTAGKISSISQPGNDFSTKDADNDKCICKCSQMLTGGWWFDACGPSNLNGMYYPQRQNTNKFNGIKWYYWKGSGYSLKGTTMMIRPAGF
# RUN_DESCRIPTION: SPR (ProteOn XPR36), antibody captured on Protein A/G, ANGPT2 as analyte, 1:1 Langmuir fit
READOUT: koff
// return the numeric value with its unit appended

Consider the worked cases shown below.
Looking up ANGPT2-opt-13 (humanized) (antibody, human IgG1, kappa, V domains shown, also called Ang2-opt-13; ANGPT-opt-13) VH: QVQLVQSGAEVKKPGSSVKVSCKASGYIFIDYFINWVRQAPGQGLEWMGKIGPGSGSSSSNEKFKGRVTITADKSTSTAYMELSSLRSEDTAVYYCAREAFDYDGDYYGMAYWGQGTLVTVSS VL: EIVMTQSPATLSVSPGERATLSCKSSQSLLSSGNQKSFLAWYQQKPGQAPRLLIYGASTRETGIPARFSGSGSGTEFTLTISSLQSEDFAVYYCQNDHSYPITFGQGTKLEIKR , I see its koff listed as 2.08e-05 s⁻¹

Looking up ANGPT2-opt-2 (humanized) (antibody, human IgG1, kappa, V domains shown, also called Ang2-opt-2; ANGP12-opt-2) VH: QVQLVQSGAEVKKPGSSVKVSCKASGYIFIEYFINWVRQAPGQGLEWMGKIGPGSGSSSSNEKFKGRVTITADKSTSTAYMELSSLRSEDTAVYYCAREAFDYEGDYYGMAYWGQGTLVTVSS VL: EIVMTQSPATLSVSPGERATLSCKSSQSLLASGNQKNFLAWYQQKPGQAPRLLIYGASTRESGIPARFSGSGSGTEFTLTISSLQSEDFAVYYCQNDHSYPITFGQGTKLEIKR , I see its koff listed as 8.45e-05 s⁻¹

With those in mind, consider the next binder.
Looking up ANGPT2-opt-31 (humanized) (antibody, human IgG1, kappa, V domains shown, also called Ang2-opt-31) VH: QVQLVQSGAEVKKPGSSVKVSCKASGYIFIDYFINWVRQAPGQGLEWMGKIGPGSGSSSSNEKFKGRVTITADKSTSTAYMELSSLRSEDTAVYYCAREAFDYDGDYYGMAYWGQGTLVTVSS VL: EIVMTQSPATLSVSPGERATLSCKSSQSLLSSGNQKSFLAWYQQKPGQAPRLLIYGASTRESGIPARFSGSGSGTEFTLTISSLQSEDFAVYYCQNDHSYPITFGQGTKLEIKR , I see its koff listed as 1.96e-05 s⁻¹

Reference for the values: patent US20200407435A1
